Where these numbers come from: patent US20260306496A1

- tgt: CDK2/CCNE1 (Homo sapiens, UniProt P24941)
- assay.text: CDK2 homogeneous time-resolved fluorescence (HTRF) assay
- Assay type: biochemical
- assay.conditions: 3 nM CDK2/CCNE1, 1 mM ATP, 50 nM ULight-eIF4E-binding protein 1 (Thr37/46) peptide, 60 min at 23° C.; read-out: CDK2/CCNE IC50 <25 nM
// IC50 lookup, one value per entry

molecule: CN[C@H]1CC[C@@H](Cn2ncc3cnc(Nc4ccc(S(C)(=O)=O)cc4)nc32)CC1 [Compound 45]
IC50: < 0.025 µM
--
molecule: O=Cc1cccc(Nc2ncc3cnn(CC4CCCCC4)c3n2)c1 [Compound 26]
IC50: < 0.025 µM
--
molecule: CS(=O)(=O)N1CCC(Nc2ncc3cnn(CC4CCCCC4)c3n2)CC1 [Compound 2]
IC50: < 0.025 µM
--
molecule: OCCc1cccc(Nc2ncc3cnn(CC4CCCCC4)c3n2)c1 [Compound 35]
IC50: < 0.025 µM
--
molecule: C=CS(=O)(=O)c1ccc(Nc2ncc3cnn(CC4CCCCC4)c3n2)cn1 [Compound 34]
IC50: < 0.025 µM
--
molecule: CS(=O)(=O)c1ccc(Nc2ncc3cnn(C4CCC(C#N)CC4)c3n2)cc1 (single isomer, unassigned) [Compound 32]
IC50: < 0.025 µM

Please examine the following record next.
Request: Find the measured IC50: item CS(=O)(=O)c1ccc(Nc2ncc3cnn([C@@H]4CCC[C@@H](C#N)C4)c3n2)cc1 [Compound 46] , target or system CDK2/CCNE1 (Homo sapiens, UniProt P24941).
Result: < 0.025 µM
